Reference source for all entries: the supplement of paper PMC11061612

test system: MDA-MB-415 (Breast Carcinoma); assay: combination Emax (second highest fraction inhibited in the dose matrix, 72 h); higher = more inhibition; extreme values may be limits of the assay
Endpoint: combination Emax
Enter a number only.

Input C=CCn1c(=O)c2cnc(Nc3ccc(N4CCN(C)CC4)cc3)nc2n1-c1cccc(C(C)(C)O)n1 [AZD1775] + C1CN(CCC1(C(=O)N[C@@H](CCO)C2=CC=C(C=C2)Cl)N)C3=NC=NC4=C3C=CN4 [Capivasertib] (first compound max 3 µM, partner max 3 µM) . Output combination Emax: 0.764

Input Cn1cnc2c(F)c(Nc3ccc(Br)cc3Cl)c(C(=O)NOCCO)cc21 [Selumetinib] + C=CCn1c(=O)c2cnc(Nc3ccc(N4CCN(C)CC4)cc3)nc2n1-c1cccc(C(C)(C)O)n1 [AZD1775] (first compound max 10 µM, partner max 1 µM) . Output combination Emax: 0.23

Input Cc1cc2ncnn2cc1Nc1ncc2c(n1)n(C1CCOCC1)c(=O)n2C [AZD7648] + C[C@@H]1COCCN1C2=NC(=NC(=C2)C3(CC3)[S@](=N)(=O)C)C4=C5C=CNC5=NC=C4 [AZD6738] (first compound max 10 µM, 7x7, partner max 10 µM) . Output combination Emax: 0.515

Input CN(C)CCCOc1ccc(-c2ccc3ncc4c(c3c2)n(C2CCOCC2)c(=O)n4C)cn1 [AZD0156] + C[C@@H]1COCCN1C2=NC(=NC(=C2)C3(CC3)[S@](=N)(=O)C)C4=C5C=CNC5=NC=C4 [AZD6738] (first compound max 1 µM, 7x7, partner max 10 µM) . Output combination Emax: 0.395

* * *

test system: LS-1034 (Colorectal Carcinoma); experiment: Bliss excess, mean over the matrix (fraction); higher = more synergy;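 also: after 72 h of two-drug dosing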
Endpoint: Bliss excess
Enter a number only.

# value of Bliss excess, LS-1034 (Colorectal Carcinoma), item Cc1c2c(nn1C)CSCc1cc(n(C)n1)CSc1cc(c3ccccc3c1)OCCCc1c(C(=O)O)n(C)c3c-2c(Cl)ccc13 [AZD5991] + CC(=O)O[C@H]1C(=O)[C@@]2(C)[C@H]([C@H](OC(=O)c3ccccc3)[C@]3(O)C[C@H](OC(=O)[C@H](O)[C@@H](NC(=O)c4ccccc4)c4ccccc4)C(C)=C1C3(C)C)[C@]1(OC(C)=O)CO[C@@H]1C[C@@H]2O [Paclitaxel] (first compound max 1 µM, 7x7, partner max 3 µM) = -0.0473

# value of Bliss excess, LS-1034 (Colorectal Carcinoma), item COc1cc2c(cc1OCCCCCOc1cc3c(cc1OC)C(=O)N1C=C(C)C[C@H]1C=N3)N=C[C@@H]1CC(C)=CN1C2=O [SG3199] + O=C(c1cc(Cc2n[nH]c(=O)c3ccccc23)ccc1F)N1CCN(C(=O)C2CC2)CC1 [Olaparib] (first compound max 0.001 µM, 7x7, partner max 10 µM) = -0.0462

# value of Bliss excess, LS-1034 (Colorectal Carcinoma), item NC1(C(=O)N[C@@H](CCO)c2ccc(Cl)cc2)CCN(c2ncnc3[nH]ccc23)CC1 [Capivasertib] + Cn1cnc2c(F)c(Nc3ccc(Br)cc3Cl)c(C(=O)NOCCO)cc21 [Selumetinib] (first compound max 10 µM, 7x7, partner max 10 µM) = -0.0123

* * *

tested on: SNU-423 (Hepatocellular Carcinoma); assay: combination Emax (second highest fraction inhibited in the dose matrix, 72 h); higher = more inhibition; extreme values may be limits of the assay
Kindly state combination Emax for each of the entries shown.

Input N#Cc1cnc(Nc2cc(NC[C@H]3CNCCO3)c(C(F)(F)F)cn2)cn1 [SRA737] + CCc1c2c(nc3ccc(O)cc13)-c1cc3c(c(=O)n1C2)COC(=O)[C@]3(O)CC [SN-38] (first compound max 10 µM, 7x7, partner max 0.3 µM) . Output combination Emax: 0.648

Input Cc1cc2ncnn2cc1Nc1ncc2c(n1)n(C1CCOCC1)c(=O)n2C [AZD7648] + C=CCn1c(=O)c2cnc(Nc3ccc(N4CCN(C)CC4)cc3)nc2n1-c1cccc(C(C)(C)O)n1 [AZD1775] (first compound max 10 µM, partner max 1 µM) . Output combination Emax: 0.497

Input C[C@@H]1COCCN1c1cc(C2([S@](C)(=N)=O)CC2)nc(-c2ccnc3[nH]ccc23)n1 [AZD6738] + C1CC(C1)(C(=O)[O-])C(=O)[O-].N.N.[Pt+2] [Carboplatin] (first compound max 10 µM, 7x7, partner max 10 µM) . Output combination Emax: 0.39
